assay: CHOP promoter reporter blockers, replicate testing – cell-based, confirmation (AID 504437); conditions: CHO-CHOP promoter luciferase reporter, tunicamycin-induced, luminescence; at 10 µM; active compounds read high;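 note: 0% = tunicamycin plus vehicle and 100% = wells lacking tunicamycin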
In all, about 2,100 compounds went through this assay and about 940 (45%) were called active. The set was probably picked from earlier hits. These entries were drawn from the full list.
Recorded metric: inhibition (%)

1. CCCCCCC(=O)N(O)C1CC(=O)N(c2ccccc2)C1=O (stereo unspecified)	16.2
2. FC(F)(F)c1cc(C(F)(F)F)c2ccc(N3CCN(c4ccccc4)CC3)nc2n1	61.6
3. CC(C)(C)c1ccc(Oc2ccc(N)cc2)cc1	117
4. CCOc1ccc2nc(Nc3nc4ccc(NC(C)=O)cc4s3)sc2c1	56.5
5. CCCCCn1c(SCCC(C)C)nc2c1c(=O)[nH]c(=O)n2C	97.6
6. Fc1ccccc1/C=C1\CCCC2=C1Nc1ncnn1C2c1ccccc1F (stereo unspecified)	6.7

====

test: CHOP promoter reporter blockers, replicate testing – cell-based, confirmation (AID 504437); conditions: CHO-CHOP promoter luciferase reporter, tunicamycin-induced, luminescence; at 10 µM; active compounds read high;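 note: 0% = tunicamycin plus vehicle and 100% = wells lacking tunicamycin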
Out of some 2,100 compounds screened, about 940 (45%) were called active. The set was probably picked from earlier hits. These entries were drawn from the full list.
Label rule, in plain words: inhibition of 90% and up is Condition met, under 90% is Condition not met.

1. C=C(C)COc1ccc(-c2n[nH]c(C)c2-c2ccccc2OC)c(O)c1	Condition met
2. NC(N)=N/N=C/c1ccc(OCc2ccc(Cl)cc2Cl)cc1	Condition not met
3. Cc1nnc(SCC(=O)N/N=C/c2cn(-c3ccccc3)nc2-c2ccc(F)cc2)n1-c1ccccc1	Condition not met
4. Cc1ccc(-n2ncc3c2ncn2nc(-c4ccco4)nc32)c(C)c1	Condition not met
5. COc1ccc(COC(=O)c2n[nH]c3ccccc23)cc1F	Condition not met
6. O=C(Nc1nnc(COc2ccccc2)s1)Nc1ccccc1F	Condition not met
7. Clc1cccc(CN2COc3c(cc(Cl)c4cccnc34)C2)c1	Condition not met
8. CCCc1nc2ccccc2c(C(=O)OCC(=O)c2ccc3c(c2)NC(=O)CO3)c1CC	Condition not met
9. CCOC(=O)c1c(C)[nH]c2c1-c1ccccc1C(=O)C2=O	Condition met
10. CSc1nc(-c2ccccc2)nc(C(Cl)Cl)n1	Condition met
11. COc1cccc(-c2nnc(NC(=O)c3ccc(S(=O)(=O)N(CC(C)C)CC(C)C)cc3)o2)c1	Condition met
12. OCCCNc1nccc(-c2cc(Nc3cccc(Cl)c3)ncn2)n1	Condition met
13. COc1cc(/C=N/NC(=O)Nc2ccccc2)ccc1OCCOc1ccccc1C	Condition not met
14. CC1=C/C(=N\OS(=O)(=O)c2ccccc2)C=CC1=O	Condition met
15. Cc1cccc(OCc2nnc(SCc3nc4cc(C(F)(F)F)ccc4c(=O)[nH]3)o2)c1	Condition met
16. Cc1ccc(NC(=O)/C(=C/c2ccc([N+](=O)[O-])cc2)NC(=O)c2ccccc2)cc1	Condition not met

====

experiment: CHOP promoter reporter blockers, replicate testing – cell-based, confirmation (AID 504437); settings: CHO-CHOP promoter luciferase reporter, tunicamycin-induced, luminescence; at 10 µM;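 note: 0% = tunicamycin plus vehicle and 100% = wells lacking tunicamycin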
In all, about 2,100 compounds went through this assay and about 940 (45%) were called active.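 How the source made its calls: active means mean of three repeat readings of reporter signal inhibition above a set limit (cut at about 70% in these data); inactive means the rest.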 So high a share suggests a set chosen from earlier hits. These entries were drawn from the full list.
Outcome codes: label 1 (active), label 0 (inactive)

1) CCCCc1nc(NCCN)c(C#N)c2c1CSC(C)(C)C2	label 1
2) CN1C(=O)/C(=C/c2ccc(C(=O)NC3CCCC3)cc2)Oc2ccccc21	label 0
3) O=[N+]([O-])c1c(NCCO)cc(Sc2nc3ccccc3s2)c2nonc12	label 0
4) Oc1cccc(C2c3[nH]c4ccccc4c3CCN2Cc2cnn(-c3ccccc3)c2)c1 (stereo unspecified)	label 0
5) COC(=O)/C=C\C(=O)Nc1cccc([N+](=O)[O-])c1	label 1
6) FC(F)(F)c1cc(-c2ccco2)nc(N2CCOCC2)n1	label 0
7) O=C(CCl)N(Cc1cccc([N+](=O)[O-])c1)c1cccc(Cl)c1	label 1
8) Cc1cccc(NC(=O)Nc2cccc(Oc3c(F)c(F)c(F)c(F)c3F)c2)c1	label 0
9) CS(=O)(=O)N(CC(=O)Nc1ccc(Cl)c(Cl)c1)C1CCCCC1	label 0
10) COc1ccc(-n2c(SCC(=O)Nc3sc4c(c3C#N)CCCC4)nnc2-c2ccc(O)cc2)cc1	label 0
11) CCSc1nc(C)nc2c1oc1ccccc12	label 0
12) O=C(CC(NC(=O)c1ccccc1)c1ccccc1)Nc1ccc(F)c(F)c1 (stereo unspecified)	label 0
13) O=C1C=C(c2ccc(Cl)cc2)C(=O)N1Nc1ccccc1	label 0
14) Cc1cc(-c2n[nH]c(=S)n2/N=C/C(Br)=C/c2ccccc2)n[nH]1	label 1
15) COc1ccc(NC(=O)/C(C#N)=C\c2cc(OC)c(OCc3ccc(C(=O)O)cc3)cc2Br)cc1	label 0
16) C=C(C)C(=O)O[C@H]1C/C(C)=C\C(=O)/C=C(\C)[C@H](O)[C@@H]2OC(=O)C(=C)[C@@H]21	label 0
17) Cc1c(-c2ccccc2)n[nH]c1C(=O)N=Nc1c(O)[nH]c2ccccc12	label 0
18) CC(C)=CCc1c(O)c(CC=C(C)C)c2occ(-c3ccc(O)cc3)c(=O)c2c1O	label 0
19) Fc1ccccc1C(c1nnnn1Cc1ccc2c(c1)OCO2)N1CCN(Cc2ccccc2)CC1 (stereo unspecified)	label 0
20) CCOC(=O)c1cc2cc(-c3c(C(=O)OCC)oc4cc(O)cc(O)c4c3=O)ccc2o1	label 0
21) Cc1c(C(=O)Nc2cccc(Cl)c2)cn2c(nc3ccccc32)c1C#N	label 0

====

assay: CHOP promoter reporter blockers, replicate testing – cell-based, confirmation (AID 504437); details: CHO-CHOP promoter luciferase reporter, tunicamycin-induced, luminescence; at 10 µM;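 note: 0% = tunicamycin plus vehicle and 100% = wells lacking tunicamycin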
The campaign covered roughly 2,100 compounds. About 940 (45%) were called active.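 How the source made its calls: active means mean of three repeat readings of reporter signal inhibition above a set limit (cut at about 70% in these data); inactive means the rest.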 The set was probably picked from earlier hits. Not all results are given here.
Outcome codes: 1 (yes) = active, 0 (no) = inactive

1. O=C(Nc1cc(N2CCOCC2)ncn1)NC1(C(F)(F)F)Oc2ccc(Cl)cc2O1 (stereo not given)	1 (yes)
2. O=[N+]([O-])c1cccc(-c2nnc3c4ccccc4c4ccccc4n23)c1	0 (no)
3. Cc1ccc(-c2csc(-c3c[nH]c4ccccc34)n2)cc1	0 (no)
4. O=[N+]([O-])c1cc(S(=O)(=O)CCCN2CCOCC2)ccc1F	0 (no)
5. Cc1ccc(-n2nc(C)c(/C=N/NC(=O)c3cccs3)c2Cl)cc1	0 (no)
